system: leukemia cancer cell lines; assay: NCI-60 cytotoxicity, leukemia; assay type: cell-based; details: Homo sapiens; NCI-60, selected value
Reported GI50 values follow for various molecules
Parameter: GI50 (nM)

[
  {
    "Molecule": "CC[C@H](C)[C@H](NC(=O)C12C3C4C1C1C2C3C41NC)C(=O)N(C)[C@H](C[C@@H](OC(C)=O)c1nc(C(=O)N[C@@H](Cc2ccccc2)C[C@H](C)C(=O)OC)cs1)C(C)C (some centres unmarked) [Tb10]",
    "Op": "=",
    "Observed value": 61.3
  },
  {
    "Molecule": "CC[C@H](C)[C@H](NC(=O)C12CC(NC)(C1)C2)C(=O)N(C)[C@H](C[C@@H](OC(C)=O)c1nc(C(=O)N[C@@H](Cc2ccccc2)C[C@H](C)C(=O)OC)cs1)C(C)C [Tb8]",
    "Op": "=",
    "Observed value": 9.62
  },
  {
    "Molecule": "CC[C@H](C)[C@H](NC(=O)C12C3C4C1C1C2C3C41NC(C)=O)C(=O)N(C)[C@H](C[C@@H](OC(C)=O)c1nc(C(=O)N[C@@H](Cc2ccccc2)C[C@H](C)C(=O)OC)cs1)C(C)C (some centres unmarked) [Tb9]",
    "Op": "=",
    "Observed value": 24.2
  },
  {
    "Molecule": "CCC(C)[C@H](NC(=O)CN(C)C)C(=O)N(C)[C@H](C[C@@H](OC(C)=O)c1nc(C(=O)NC23C4C5C2C2C3C4C52C(=O)OC)cs1)C(C)C (stereo in doubt) [Tb13]",
    "Op": "=",
    "Observed value": 13.8
  },
  {
    "Molecule": "CC[C@H](C)[C@H](NC(=O)NC(C)(C)C)C(=O)N(C)[C@H](C[C@@H](OC(C)=O)c1nc(C(=O)N[C@@H](Cc2ccccc2)C[C@H](C)C(=O)OC)cs1)C(C)C [Tb6]",
    "Op": "=",
    "Observed value": 286
  },
  {
    "Molecule": "CC[C@H](C)[C@H](NC(=O)Nc1ccccc1)C(=O)N(C)[C@H](C[C@@H](OC(C)=O)c1nc(C(=O)N[C@@H](Cc2ccccc2)C[C@H](C)C(=O)OC)cs1)C(C)C [Tb5]",
    "Op": ">",
    "Observed value": 1000
  },
  {
    "Molecule": "CC[C@H](C)[C@H](NC(=O)C12CC(NC(C)=O)(C1)C2)C(=O)N(C)[C@H](C[C@@H](OC(C)=O)c1nc(C(=O)N[C@@H](Cc2ccccc2)C[C@H](C)C(=O)OC)cs1)C(C)C [Tb7]",
    "Op": "=",
    "Observed value": 17.6
  },
  {
    "Molecule": "CC[C@H](C)[C@H](NC(=O)c1ccccn1)C(=O)N(C)[C@H](C[C@@H](OC(C)=O)c1nc(C(=O)N[C@@H](Cc2ccccc2)C[C@H](C)C(=O)OC)cs1)C(C)C [Tb3]",
    "Op": ">",
    "Observed value": 1000
  },
  {
    "Molecule": "CC[C@H](C)[C@H](NC(=O)[C@H]1CCCCN1C)C(=O)N(C)[C@H](C[C@@H](OC(C)=O)c1nc(C(=O)N[C@@H](Cc2ccccc2)C[C@H](C)C(=O)O)cs1)C(C)C [Tb1, N^14-desacetoxytubulysin H]",
    "Op": "=",
    "Observed value": 0.264
  },
  {
    "Molecule": "CC[C@@H](C)[C@H](NC(=O)CN(C)C)C(=O)N(C)[C@H](C[C@@H](OC(C)=O)c1nc(C(=O)NC23CC(C(=O)OC)(C2)C3)cs1)C(C)C [Tb16]",
    "Op": "=",
    "Observed value": 15.1
  },
  {
    "Molecule": "CC[C@H](C)[C@H](NC(=O)[C@H]1CCCCN1C)C(=O)N(C)[C@H](C[C@@H](OC(C)=O)c1nc(C(=O)N[C@@H](Cc2ccccc2)C[C@H](C)C(=O)OC)cs1)C(C)C [Tb2]",
    "Op": "=",
    "Observed value": 0.078
  },
  {
    "Molecule": "COC(=O)[C@@H](C)C[C@H](Cc1ccccc1)NC(=O)c1csc([C@@H](C[C@H](C(C)C)N(C)C(=O)[C@@H](NC(=O)CN(C)C)C2CC2)OC(C)=O)n1 [Tb21]",
    "Op": "=",
    "Observed value": 1.65
  },
  {
    "Molecule": "CNC12C3C4C1C1C2C3C41C(=O)N[C@H](C(=O)N(C)[C@H](C[C@@H](OC(C)=O)c1nc(C(=O)N[C@@H](Cc2ccccc2)C[C@H](C)C(=O)OC)cs1)C(C)C)C1CC1 (some centres unmarked) [Tb23]",
    "Op": "=",
    "Observed value": 16.3
  },
  {
    "Molecule": "CC[C@H](C)[C@H](NC(=O)N[C@@H](C)c1ccccc1)C(=O)N(C)[C@H](C[C@@H](OC(C)=O)c1nc(C(=O)N[C@@H](Cc2ccccc2)C[C@H](C)C(=O)OC)cs1)C(C)C [Tb4]",
    "Op": ">",
    "Observed value": 1000
  }
]

----------
Item-by-item account of GI50
test system: CNS cancer cell lines; test: NCI-60 cytotoxicity, CNS cancer; assay type: cell-based; conditions: Homo sapiens; NCI-60, selected value
Parameter: GI50 (nM)

[
  {
    "Molecule": "CCC(C)[C@H](NC(=O)[C@H]1CCCCN1C)C(=O)N(C)[C@H](C[C@@H](OC(C)=O)c1nc(C(=O)NC23C4C5C2C2C3C4C52C(=O)OC)cs1)C(C)C (stereo in doubt)",
    "Parameter": "GI50",
    "Op": "=",
    "Observed value": 1.15
  },
  {
    "Molecule": "CCC(C)[C@H](NC(=O)[C@H]1CCCCN1C)C(=O)N(C)[C@H](C[C@@H](OC(C)=O)c1nc(C(=O)NC23CC(C(=O)OC)(C2)C3)cs1)C(C)C (stereo in doubt)",
    "Parameter": "GI50",
    "Op": "=",
    "Observed value": 0.382
  },
  {
    "Molecule": "CC[C@H](C)[C@H](NC(=O)C12C3C4C1C1C2C3C41NC(C)=O)C(=O)N(C)[C@H](C[C@@H](OC(C)=O)c1nc(C(=O)N[C@@H](Cc2ccccc2)C[C@H](C)C(=O)OC)cs1)C(C)C (stereo partly shown)",
    "Parameter": "GI50",
    "Op": "=",
    "Observed value": 246
  },
  {
    "Molecule": "CC[C@H](C)[C@H](NC(=O)Nc1ccccc1)C(=O)N(C)[C@H](C[C@@H](OC(C)=O)c1nc(C(=O)N[C@@H](Cc2ccccc2)C[C@H](C)C(=O)OC)cs1)C(C)C",
    "Parameter": "GI50",
    "Op": ">",
    "Observed value": 1000
  }
]

----------
system: HEK 293T (human embryonic kidney cells); assay: Cytotoxic assay (CellTiter-Glo, 72 h), HEK 293T; assay type: cell-based; settings: Homo sapiens, HEK-293T, read-out: HEK 293T IC50 (nM)
Parameter: IC50

[
  {
    "Test smiles": "COC(=O)[C@H]1CC[C@H](NC(=O)c2csc([C@@H](C[C@H](C(C)C)N(C)C(=O)[C@@H](NC(=O)[C@H]3CCCCN3C)C(C)C)OC(C)=O)n2)CC1",
    "Parameter": "IC50",
    "Observed value": "3.83 nM"
  },
  {
    "Test smiles": "CC(=O)O[C@H](C[C@H](C(C)C)N(C)C(=O)[C@@H](NC(=O)[C@H]1CCCCN1C)C(C)C)c1nc(C(=O)N[C@H]2CC[C@H](C(=O)O)CC2)cs1",
    "Parameter": "IC50",
    "Observed value": "> 100 nM"
  },
  {
    "Test smiles": "COC(=O)[C@@H](C)C[C@H](Cc1ccccc1)NC(=O)c1csc([C@@H](C[C@H](C(C)C)N(C)C(=O)C2(NC(=O)[C@H]3CCCCN3C)CCCC2)OC(C)=O)n1",
    "Parameter": "IC50",
    "Observed value": "5.78 nM"
  }
]

----------
system: CNS cancer cell lines; assay: NCI-60 cytotoxicity, CNS cancer; format: cell-based; conditions: Homo sapiens; NCI-60, selected value

[
  {
    "Compound": "COC(=O)[C@@H](C)C[C@H](Cc1ccccc1)NC(=O)c1csc([C@@H](C[C@H](C(C)C)N(C)C(=O)[C@@H](NC(=O)[C@H]2CCCCN2C)C2CC2)OC(C)=O)n1",
    "GI50, nM": 0.345
  },
  {
    "Compound": "CCC(C)[C@H](NC(=O)CN(C)C)C(=O)N(C)[C@H](C[C@@H](OC(C)=O)c1nc(C(=O)NC23C4C5C2C2C3C4C52C(=O)OC)cs1)C(C)C (stereo in doubt)",
    "GI50, nM": 117
  },
  {
    "Compound": "CC[C@H](C)[C@H](NC(=O)[C@H]1CCCCN1C)C(=O)N(C)[C@H](C[C@@H](OC(C)=O)c1nc(C(=O)N[C@@H](Cc2ccccc2)C[C@H](C)C(=O)O)cs1)C(C)C",
    "GI50, nM": 0.305
  }
]
